Test system: Tyk2-mediated, IL23-induced STAT3 phosphorylation in human Kit225 T cell line
Measurement protocol: IL-23_Kit225 T Cell Assay (phosphorylated-STAT3, AlphaLISA)
Type: cell-based
Study conditions: Kit225 cells, compound 1 hour, human recombinant IL-23 20 minutes, pSTAT3
IC50 by entry:
Respond with the bare value in nM.

A selection of reference data follows.
molecule=[2H]C([2H])([2H])NC(=O)c1nnc(NC(=O)C2CC2)cc1Nc1cc(OC2COC2)cc(-c2ncn(C)n2)c1OC study_target="Tyk2-mediated, IL23-induced STAT3 phosphorylation in human Kit225 T cell line" measurement_kind=IC50 reading_unit=nM experimental_value=130
molecule=CNC(=O)c1nnc(NC(=O)C2CC2)cc1Nc1cc(N2CC(OC)C2)cc(-c2ncn(C)n2)c1OC study_target="Tyk2-mediated, IL23-induced STAT3 phosphorylation in human Kit225 T cell line" measurement_kind=IC50 reading_unit=nM experimental_value=88
molecule=[2H]C([2H])([2H])NC(=O)c1nnc(NC(=O)C2CC2)cc1Nc1cc(N2CC(OC)C2)cc(-c2ncn(C)n2)c1OC study_target="Tyk2-mediated, IL23-induced STAT3 phosphorylation in human Kit225 T cell line" measurement_kind=IC50 reading_unit=nM experimental_value=57

With those in mind, consider the next compound.
Prompt: Could you share which IC50 value was measured for `[2H]C([2H])([2H])NC(=O)c1nnc(NC(=O)C2CC2)cc1Nc1cc(N2CCC2=O)cc(-c2ncn(C)n2)c1OC` ?
Response: 9.7

Data provenance is patent US20220009910A1.
